molecular target: hRAD51 (Homo sapiens, UniProt Q06609); assay: in vitro DNA strand exchange assay with recombinant hRAD51
Sequence (Q06609 2-339): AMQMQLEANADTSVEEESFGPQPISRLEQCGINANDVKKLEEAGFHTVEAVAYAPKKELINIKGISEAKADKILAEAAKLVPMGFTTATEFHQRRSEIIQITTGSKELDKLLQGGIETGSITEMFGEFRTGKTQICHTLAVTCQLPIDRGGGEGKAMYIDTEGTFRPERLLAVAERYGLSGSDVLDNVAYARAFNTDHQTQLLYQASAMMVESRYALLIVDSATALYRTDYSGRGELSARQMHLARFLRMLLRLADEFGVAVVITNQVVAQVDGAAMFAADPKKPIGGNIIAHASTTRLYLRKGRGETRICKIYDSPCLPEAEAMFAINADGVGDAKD
pIC50: −log10 of the molar value.
OBSERVABLE: pIC50

(a) O=S(=O)(O)c1cc(N=C=S)ccc1/C=C/c1ccc(N=C=S)cc1S(=O)(=O)O [DIDS]
(b) O=C1C(Cl)=C(N2CCOCC2)C(=O)N1c1ccc(Cl)c(Cl)c1 [RI-1]
Exercise: compare a and b ; which one has the greater pIC50? Kindly state the label of the option you pick.
Key: b
